biological target: Rev responsive element (RRE) RNA; test: Binding affinity to HIV-1 RRE 2B RNA measured after 4 hrs by dot blot assay; type: nucleic-acid assay, Human immunodeficiency virus 1
*1 amine or outer side, *2 acyl side, *3 side chain or, on linkers, in order; H or OH if unused. Where a SMILES comes first, the peptide text is derived from it. Side-chain parts run from the residue outwards. [ ]: non-standard residue; d: D form. The star is where a group is joined. Phe(4-B(OH)2) = N[C@@H](Cc1ccc(B(O)O)cc1)C(=O)O; Benzoyl(4-B(OH)2) = O=C(c1ccc(B(O)O)cc1)*; εLys = N[C@@H](CCCCN[*:1])C(=O)[*:2]
Experimental Readout: Kd (µM)
Report as a plain number; the unit µM is understood.

[
  {
    "Compound": "NCCCC[C@H](NC(=O)[C@H](Cc1ccc(O)cc1)NC(=O)[C@@H](N)CCCCNC(=O)c1ccc(B(O)O)cc1)C(=O)NCCCC[C@H](NC(=O)[C@H](CCCCN)NC(=O)[C@H](Cc1ccc(O)cc1)NC(=O)[C@@H](N)CCCCNC(=O)c1ccc(B(O)O)cc1)C(=O)N[C@@H](Cc1cnc[nH]1)C(=O)N[C@@H](CCCCN)C(=O)N[C@@H](CCCCN)C(=O)N[C@@H](Cc1ccc(O)cc1)C(=O)O (H-K(Benzoyl(4-B(OH)2))YKK([Lys-Tyr-εLys-Benzoyl(4-B(OH)2)])HKKY-OH)",
    "Numeric Readout": 86.5
  }
]

Now turn to the next compound.
Kd recorded for this compound, NCCCC[C@H](NC(=O)[C@H](CC(N)=O)NC(=O)[C@H](CCCCN)NC(=O)[C@H](Cc1ccc(B(O)O)cc1)NC(=O)[C@H](Cc1ccc(O)cc1)NC(=O)[C@@H](N)Cc1ccc(B(O)O)cc1)C(=O)N[C@@H](CO)C(=O)N[C@@H](Cc1ccc(O)cc1)C(=O)O (H-[Phe(4-B(OH)2)]Y[Phe(4-B(OH)2)]KNKSY-OH) , is 17.7

###

# maps each entry to its pKd
molecular target: Rev responsive element (RRE) RNA; experiment: Binding affinity to HIV-1 RRE 2B RNA measured after 4 hrs by dot blot assay; assay type: nucleic-acid assay, Human immunodeficiency virus 1
Where a SMILES comes first, the peptide text is derived from it. Side-chain parts run from the residue outwards. [ ]: non-standard residue; d: D form. The star is where a group is joined. X4 = NCCCC[C@H](NC(=O)[C@@H](N)CCCCNC(=O)c1ccc(B(O)O)cc1)C(=O)N[C@@H](Cc1ccc(B(O)O)cc1)C(=O)*; X2 = NCCCC[C@H](NC(=O)[C@@H](N)CCCCN)C(=O)N[C@@H](CCCCNC(=O)c1ccc(B(O)O)cc1)C(=O)*; X3 = NCCCC[C@H](N)C(=O)N[C@@H](CCCCNC(=O)c1ccc(B(O)O)cc1)C(=O)*; Phe(4-B(OH)2) = N[C@@H](Cc1ccc(B(O)O)cc1)C(=O)O; Benzoyl(4-B(OH)2) = O=C(c1ccc(B(O)O)cc1)*
// returns pKd (minus log10 of molar concentration), number only

Record excerpt, results attached:
[
  {
    "Compound": "CC(C)C[C@H](NC(=O)[C@H](CCCCN)NC(=O)[C@H](CCCCNC(=O)[C@H](CCCCN)NC(=O)[C@H](CCCCNC(=O)c1ccc(B(O)O)cc1)NC(=O)[C@@H](N)CCCCN)NC(=O)[C@H](CCCCN)NC(=O)[C@H](CCCCNC(=O)c1ccc(B(O)O)cc1)NC(=O)[C@@H](N)CCCCN)C(=O)N[C@@H](CCCCN)C(=O)N[C@@H](Cc1ccc(O)cc1)C(=O)O (H-KK(Benzoyl(4-B(OH)2))KK([Lys-X3])KLKY-OH)",
    "pKd": 4.23
  },
  {
    "Compound": "NCCCC[C@H](NC(=O)[C@H](CCCCN)NC(=O)[C@H](CCCCNC(=O)c1ccc(B(O)O)cc1)NC(=O)[C@H](CCCCNC(=O)[C@H](Cc1ccc(B(O)O)cc1)NC(=O)[C@H](CCCCN)NC(=O)[C@@H](N)CCCCNC(=O)c1ccc(B(O)O)cc1)NC(=O)[C@H](Cc1ccc(B(O)O)cc1)NC(=O)[C@H](CCCCN)NC(=O)[C@@H](N)CCCCNC(=O)c1ccc(B(O)O)cc1)C(=O)N[C@@H](Cc1ccc(O)cc1)C(=O)O (H-K(Benzoyl(4-B(OH)2))K[Phe(4-B(OH)2)]K(X4)K(Benzoyl(4-B(OH)2))KKY-OH)",
    "pKd": 5.48
  },
  {
    "Compound": "C[C@@H](O)[C@H](NC(=O)[C@@H]1CCCN1C(=O)[C@H](CCCCNC(=O)[C@H](CCCCN)NC(=O)[C@H](Cc1ccc(O)cc1)NC(=O)[C@@H](N)Cc1c[nH]c2ccccc12)NC(=O)[C@H](CCCCN)NC(=O)[C@H](Cc1ccc(O)cc1)NC(=O)[C@@H](N)Cc1c[nH]c2ccccc12)C(=O)N[C@@H](Cc1c[nH]c2ccccc12)C(=O)N[C@@H](Cc1ccc(O)cc1)C(=O)O (H-WYKK([Lys-Tyr-Trp])PTWY-OH)",
    "pKd": 4.55
  }
]

Next:
// field: pKd; key: C[C@@H](O)[C@H](NC(=O)[C@H](Cc1ccc(B(O)O)cc1)NC(=O)[C@H](CCCCNC(=O)[C@H](CCCCNC(=O)c1ccc(B(O)O)cc1)NC(=O)[C@H](CCCCN)NC(=O)[C@@H](N)CCCCN)NC(=O)[C@H](CCCCNC(=O)c1ccc(B(O)O)cc1)NC(=O)[C@H](CCCCN)NC(=O)[C@@H](N)CCCCN)C(=O)N[C@@H](CO)C(=O)N[C@@H](Cc1ccc(O)cc1)C(=O)O (H-KKK(Benzoyl(4-B(OH)2))K(X2)[Phe(4-B(OH)2)]TSY-OH) ; value = 4.57

All figures here come from ChEMBL document CHEMBL4431310.
